- subject.of.test: T1, natriuretic peptide receptor-B (human)
- T1 chain: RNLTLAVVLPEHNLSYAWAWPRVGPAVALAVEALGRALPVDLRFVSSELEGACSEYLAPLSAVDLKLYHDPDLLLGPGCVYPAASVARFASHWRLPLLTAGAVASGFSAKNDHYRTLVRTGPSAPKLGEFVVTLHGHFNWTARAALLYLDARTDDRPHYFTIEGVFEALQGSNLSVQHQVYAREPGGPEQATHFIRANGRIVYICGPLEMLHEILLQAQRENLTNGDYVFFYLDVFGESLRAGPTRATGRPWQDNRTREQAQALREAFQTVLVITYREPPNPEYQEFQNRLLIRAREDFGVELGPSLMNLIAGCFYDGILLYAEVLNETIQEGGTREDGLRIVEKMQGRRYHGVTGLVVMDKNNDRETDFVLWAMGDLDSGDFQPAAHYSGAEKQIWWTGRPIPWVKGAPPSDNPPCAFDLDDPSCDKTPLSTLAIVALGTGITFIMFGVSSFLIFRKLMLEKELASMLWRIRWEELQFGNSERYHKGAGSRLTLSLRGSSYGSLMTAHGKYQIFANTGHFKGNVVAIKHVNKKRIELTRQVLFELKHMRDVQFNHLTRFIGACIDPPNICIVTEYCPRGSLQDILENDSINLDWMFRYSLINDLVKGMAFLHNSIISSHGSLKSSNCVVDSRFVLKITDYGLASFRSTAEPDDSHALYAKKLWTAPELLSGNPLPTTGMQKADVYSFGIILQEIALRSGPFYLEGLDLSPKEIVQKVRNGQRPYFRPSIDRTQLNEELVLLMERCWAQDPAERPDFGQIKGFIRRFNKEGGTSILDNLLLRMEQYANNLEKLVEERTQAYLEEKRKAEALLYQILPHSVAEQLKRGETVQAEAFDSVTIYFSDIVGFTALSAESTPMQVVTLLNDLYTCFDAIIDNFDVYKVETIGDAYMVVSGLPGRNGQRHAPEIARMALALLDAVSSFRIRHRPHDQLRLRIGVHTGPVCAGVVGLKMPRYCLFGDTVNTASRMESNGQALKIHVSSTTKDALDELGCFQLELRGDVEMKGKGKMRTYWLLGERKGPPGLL
- method.description: cell-based or functional assay
Numbered stars: 1 amine (or outer) side, 2 acyl side, 3 side chain; on linkers, the order of the positions; unused ones are H or OH. Square brackets hold non-standard residues; d marks the D form. Ends that are not written are not given here. * marks the point of attachment. Apc(Et) = 4-amino-1-ethyl-piperidine-4-carboxylic acid, CCN1CCC(N[*:1])(C(=O)[*:2])CC1; Pro(trans-4-NH2) = O=C([C@@H]1C[C@@H](N[*:3])CN1[*:1])[*:2]; Sni = (S)-nipecotic acid, O=C([C@H]1CCCN([*:1])C1)[*:2]; Bmf = rac-2-amino-3-phenyl-butyric acid; Hyp = O=C(O)[C@@H]1C[C@@H](O)CN1; NMeL = CN[C@@H](CC(C)C)C(=O)O; Octanoyl = CCCCCCCC(=O)*; Az3 = not defined here; Che = not defined here; Hexanoyl = CCCCCC(=O)*; Oct = not defined here; leu = not defined here; Occ = octanoic acid
Recorded EC50 group, cGMP in GTM-3 cells values for a group of binders are listed next.

Consider the reported EC50 group, cGMP in GTM-3 cells for these binders:
binder="[Occ][Az3]FGLKLDRI-NH2 (reading uncertain; also: printed as Occ-Az3-Phe-Gly-Leu-Lys-Leu-Asp-Arg-Ile-NH2) [JAL-0742]" metric="EC50 group, cGMP in GTM-3 cells" result="≤ 15 µM"
binder="Hexanoyl-S[dP]FGLKLDRI-NH2 [JAL-0638]" metric="EC50 group, cGMP in GTM-3 cells" result="≤ 15 µM"
binder="Octanoyl-[dA]F[Apc(Et)]E[dT]L[Hyp][NMeL]DRI-NH2 [JAL-1407]" metric="EC50 group, cGMP in GTM-3 cells" result="≤ 1 µM"
binder="[Occ][Sni]F[leu]L[Hyp][NMeL][Bmf]RI-NH2 (reading uncertain; also: printed as Occ-Sni-Phe-leu-Leu-Hyp-Nml-Bmf-Arg-Ile-NH2) [JAL-1857]" metric="EC50 group, cGMP in GTM-3 cells" result="≤ 15 µM"

Please fill in: EC50 group, cGMP in GTM-3 cells reported for [Oct][Sni]F[leu]L[Pro(trans-4-NH2)][NMeL]VR[Che] (reading uncertain; also: printed as Oct-Sni-Phe-leu-Leu-Tap-Nml-Val-Arg-Che) [JAL-1849] = ≤ 5 µM
